# targetSystem: 3-oxo-5-alpha-steroid 4-dehydrogenase 2 (Homo sapiens)
# Sequence (P31213 whole entry): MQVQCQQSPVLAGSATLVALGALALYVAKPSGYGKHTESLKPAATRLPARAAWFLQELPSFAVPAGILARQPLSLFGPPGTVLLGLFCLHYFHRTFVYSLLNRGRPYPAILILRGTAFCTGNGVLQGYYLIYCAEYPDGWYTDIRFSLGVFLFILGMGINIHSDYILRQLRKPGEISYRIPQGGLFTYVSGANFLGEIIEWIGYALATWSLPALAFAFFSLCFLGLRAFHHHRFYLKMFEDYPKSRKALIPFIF
endpoint: pIC50
// returns pIC50 (minus log10 of molar concentration), number only

Entry C[C@]12CC[C@H](OC(=O)c3ccc(F)cc3)CC1=CCC1C2CC[C@]2(C)C(=O)CCC12 (some centres not stated) , pIC50 reported as 8.45
